# experimental target: human emopamil binding protein and human 7-dehydrocholesterol reductase co-expressing cells (hEBP-DHCR7 membrane) (Homo sapiens (Human), UniProt Q15125)
# Sequence (Q15125 whole entry): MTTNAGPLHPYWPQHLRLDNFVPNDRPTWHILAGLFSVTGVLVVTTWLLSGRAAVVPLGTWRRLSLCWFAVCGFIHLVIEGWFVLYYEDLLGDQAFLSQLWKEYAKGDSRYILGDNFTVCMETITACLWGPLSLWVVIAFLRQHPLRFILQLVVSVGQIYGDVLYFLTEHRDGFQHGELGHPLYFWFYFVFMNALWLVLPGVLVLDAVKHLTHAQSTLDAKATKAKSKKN
# test name: Radioligand filter binding assay on hEBP-DHCR7 membrane
# experimental setup: [3H]-(S)-6-(2-Methyl-3-(6-(trifluoromethyl)pyridin-3-yl)propyl)-2-thia-6-azaspiro[3.4]octane 2,2-dioxide radioligand, HEK293 membrane co-expressing hEBP and hDHCR7
measured endpoint: Ki (nM)

Field: example entries. Status: answers known.
In [3]: df
Out[3]:
                                   molecule  unit_descriptor  numeric_value
0  O=S1(=O)CC2(CCN([C@H]3CC[C@H](c4cc(C(F)(F)F)ncn4)CC3)C2)C1 [Compound 83]               nM            120
1  O=S1(=O)CC2(CCN([C@H]3CC[C@H](c4cncc(C(F)(F)F)c4)CC3)C2)C1 [Compound 63A]               nM             75

[A] CC(C)n1nc(N2CC(F)(F)C2)cc1[C@H]1CC[C@H](N2CCC3(C2)CS(=O)(=O)C3)CC1 [Compound 35]
[B] Cn1nc(C(F)(F)F)cc1[C@H]1CC[C@H](N2CC[C@]3(CCS(=O)(=O)C3)C2)CC1 (single isomer, unassigned) [27B*]
[C] Cn1nc(C(F)(F)F)cc1[C@H]1CC[C@H](N2CCC3(C2)CS(=O)(=O)C3)CC1 [Compound 2B]
Problem: Put the items in order so that reported Ki rises from first to last. Field: ranking. Enter the labels in the order requested.
Solution: C, B, A
